Origin of the recorded values: patent US6358885B1

Overview of recorded Plant response rating, Blackgrass for various compounds
# System: blackgrass
# Assay Method Text: Test B preemergence/postemergence greenhouse plant response rating 0 to 10
# Type: in vivo, Alopecurus myosuroides
# Test Settings: POSTEMERGENCE, Rate 50 g/ha; 0 to 10 scale

- Compound: "CC(C)Oc1cc(-c2nn3c(c2Br)CCCC3)c(F)cc1Cl"
  Plant response rating, Blackgrass: 3
- Compound: "Clc1cc(Cl)c(-c2nn3c(c2Cl)CCCC3)cc1OCC1CC1"
  Plant response rating, Blackgrass: 3
- Compound: "COCCN1C(=O)COc2cc(F)c(-c3nn4c(c3Cl)CCCC4)cc21"
  Plant response rating, Blackgrass: 5
- Compound: "CC(=O)c1cc(-c2nn3c(c2Cl)CCCC3)c(F)cc1Cl"
  Plant response rating, Blackgrass: 6
- Compound: "Fc1cc(Cl)ccc1-c1nn2c(c1Br)CCCC2"
  Plant response rating, Blackgrass: 4
- Compound: "CON=C(C)c1cc(-c2nn3c(c2Cl)CCCC3)c(F)cc1Cl"
  Plant response rating, Blackgrass: 2
- Compound: "CC(C)OC(=O)COc1cc(-c2nn3c(c2Cl)CCCC3)c(F)cc1Cl"
  Plant response rating, Blackgrass: 4
- Compound: "CC(C)OC(=O)c1cc(-c2nn3c(c2Cl)CCCC3)c(F)cc1Cl"
  Plant response rating, Blackgrass: 8
- Compound: "COCOc1cc(-c2nn3c(c2Cl)CCCC3)c(F)cc1Cl"
  Plant response rating, Blackgrass: 6
- Compound: "CC(C#N)Oc1cc(-c2nn3c(c2Cl)CCCC3)c(F)cc1Cl (centres unmarked)"
  Plant response rating, Blackgrass: 3
- Compound: "CCN1C(=O)COc2cc(F)c(-c3nn4c(c3Cl)CCCC4)cc21"
  Plant response rating, Blackgrass: 6
- Compound: "CCOC(=O)COc1cc(-c2nn3c(c2Cl)CCCC3)c(Cl)cc1Cl"
  Plant response rating, Blackgrass: 5
- Compound: "CCCCN1C(=O)COc2cc(F)c(-c3nn4c(c3Cl)CCCC4)cc21"
  Plant response rating, Blackgrass: 7
- Compound: "FCCCOc1cc(-c2nn3c(c2Cl)CCCC3)c(F)cc1Cl"
  Plant response rating, Blackgrass: 3
